Recorded values, source paper PMC3806465.

# Test system: Plasmodium falciparum, K1 strain, IEF stage
# METHOD: In vitro activity against P. falciparum K1
# Format: cell-based
# ASSAY CONTEXT: read-out: IC50 P. falc. K1; K1 dual drug resistant strain, IEF stage; average of two independent assays
READOUT TYPE: IC50 (nM)
Numbers only here, please. The scale is nM.

Recorded IC50 for CCN(CC)CCCC(C)Nc1ccnc2cc(Cl)ccc12 (stereo not shown) [Chloroquine, reference compound] , please?
280

---

# System: Trypanosoma brucei rhodesiense, STIB 900 strain, trypomastigotes stage
# METHOD: In vitro activity against T. b. rhodesiense
# Assay type: cell-based
# ASSAY CONTEXT: read-out: IC50 T. b. rhod.; STIB 900, trypomastigotes; average of two independent assays
READOUT TYPE: pIC50
pIC50 here: minus log base 10 of the concentration, concentration in moles per litre.

What does the data say about its pIC50? Entry: Nc1nc(N)nc(Nc2ccc([As]3SCC(CO)S3)cc2)n1 (stereo not shown) [Melarsoprol, reference compound]
8.00

---

# Test system: L6 rat skeletal myoblast cell line
# METHOD: Cytotoxicity against L6 cells
# Assay type: cell-based
# ASSAY CONTEXT: read-out: IC50 L6; cytotoxicity, L6 rat skeletal myoblasts; average of two independent assays
READOUT TYPE: IC50

Quick one: IC50 of COc1cc([C@@H]2c3cc4c(cc3[C@H](O)[C@H]3COC(=O)[C@H]23)OCO4)cc(OC)c1OC [Podophyllotoxin, reference compound] ?
19 nM

---

READOUT TYPE: melting point

melting point for C#CCNC(=O)c1ccc2c(n1)C(=O)C1=C(C2=O)S(=O)(=O)C=CN1 ?
230 °C (dec.)

Same question for CCCCNC(=O)c1ccc2c(n1)C(=O)C1=C(C2=O)S(=O)(=O)C=CN1 please.
200 °C (dec.)

Continue with CC(C)=CCC/C(C)=C/CNC(=O)c1ccc2c(n1)C(=O)C1=C(C2=O)S(=O)(=O)CCN1
200 °C (dec.)

Record: CCCCCNC(=O)c1ccc2c(n1)C(=O)C1=C(C2=O)S(=O)(=O)C=CN1
280 °C (dec.)

Item: CCCCCCCCNC(=O)c1ccc2c(n1)C(=O)C1=C(C2=O)S(=O)(=O)C=CN1
280 °C (dec.)

Do the same for CCCCNC(=O)c1ccc2c(n1)C(=O)C1=C(C2=O)S(=O)(=O)CCN1 please
200 °C (dec.)

One more compound: CC(C)=CCC/C(C)=C/CNC(=O)c1ccc2c(n1)C(=O)C1=C(C2=O)S(=O)(=O)C=CN1
280 °C (dec.)

Item: O=C(O)c1cc2c(s1)C(=O)C1=C(C2=O)S(=O)(=O)C=CN1
290 °C (dec.)

Subsequent entry: COC(=O)c1cc2c(s1)C(=O)C1=C(NCCS1(=O)=O)C2=O [Compound 10b]
280 °C (dec.)

What do you get for O=C(NCCCc1ccccc1)c1ccc2c(n1)C(=O)C1=C(C2=O)S(=O)(=O)CCN1 ?
204 °C (dec.)

Item: O=C(O)c1cc2c(s1)C(=O)C1=C(NCCS1(=O)=O)C2=O [Compound 11b]
200 °C (dec.)

Similarly, COCCNC(=O)c1ccc2c(n1)C(=O)C1=C(C2=O)S(=O)(=O)C=CN1 ?
200 °C (dec.)

Proceed to C#CCNC(=O)c1ccc2c(n1)C(=O)C1=C(C2=O)S(=O)(=O)CCN1
280 °C (dec.)

One more compound: O=C(NCc1ccccc1)c1ccc2c(n1)C(=O)C1=C(C2=O)S(=O)(=O)CCN1
200 °C (dec.)

Now the compound CCCCCCCCNC(=O)c1ccc2c(n1)C(=O)C1=C(C2=O)S(=O)(=O)CCN1
200 °C (dec.)

For O=C(NCCCc1ccccc1)c1ccc2c(n1)C(=O)C1=C(C2=O)S(=O)(=O)C=CN1 then?
230 °C (dec.)

Now consider O=C(O)c1cc2c(o1)C(=O)C1=C(C2=O)S(=O)(=O)C=CN1 .
280 °C (dec.)

Query CCCCCNC(=O)c1ccc2c(n1)C(=O)C1=C(C2=O)S(=O)(=O)CCN1 next
200 °C (dec.)

Repeat for the following compound: COCCNC(=O)c1ccc2c(n1)C(=O)C1=C(C2=O)S(=O)(=O)CCN1
200 °C (dec.)

Then this compound: O=C(NCCc1ccccc1)c1ccc2c(n1)C(=O)C1=C(C2=O)S(=O)(=O)C=CN1
290 °C (dec.)

Repeat for the following compound: CCOC(=O)c1cc2c(o1)C(=O)C1=C(C2=O)S(=O)(=O)CCN1
277 °C

Consider next the compound O=C(NCc1ccccc1)c1ccc2c(n1)C(=O)C1=C(C2=O)S(=O)(=O)C=CN1 in the same way.
280 °C (dec.)

COC(=O)CNC(=O)c1ccc2c(n1)C(=O)C1=C(C2=O)S(=O)(=O)CCN1 , same question.
200 °C (dec.)

Lookup O=C(NCCc1ccccc1)c1ccc2c(n1)C(=O)C1=C(C2=O)S(=O)(=O)CCN1
240 °C (dec.)
